B1: ZNF193 (parent)
chain: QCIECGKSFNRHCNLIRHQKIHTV

variants of: B1; assay: protein stability index of a GFP-peptide fusion (GPS, HEK-293T) (PSI 1-6); higher = more stable; conditions: c terminus: a fixed tail appended;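 note: lentivirally expressed fusions sorted by FACS into six bins by GFP to DsRed ratio, PSI derived from sequencing read proportions per bin multiplied by bin number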
Parameter protein stability index: see the listing below.
The response must contain the number and no unit.

Using the record for `C13K` , report its protein stability index. 3.74

Using the record for `K7G` , report its protein stability index. 2.13
